The origin of these recorded values is PubChem BioAssay (NCI).

Measured TGI of individual entries
- Test system: COLO 205 colon
- EXPERIMENTAL_DETAILS: NCI tumour cell line growth inhibition, 48 h

# count of solved cases: 4
INSERT INTO assay_data (molecule, tgt, measured_attribute, experimental_value) VALUES
  ('CCCCCCCCCCSC(=N)N', 'COLO 205 colon', 'TGI', '2.91 µM'),
  ('CC(=O)NC(CCCN(Cc1ccccc1)C(=O)N(C)N=O)C(=O)NCc1ccccc1 (stereo unspecified)', 'COLO 205 colon', 'TGI', '> 100 µM'),
  ('NS(=O)(=O)c1ccc(N=Nc2ccc(O)c(C(=O)O)c2)cc1', 'COLO 205 colon', 'TGI', '> 100 µM'),
  ('O=c1cc(N2CCCC2)[nH]c(=O)n1-c1ccc(Cl)cc1', 'COLO 205 colon', 'TGI', '> 100 µM');

In the following, a different molecule is considered.
INPUT: Report TGI for Cc1ccc(NC(=O)CC(=O)n2nc(C)c(N=Nc3cccc(C)c3)c2C)cc1 please.
OUTPUT: > 100 µM

----------
Measured TGI of individual entries
- System: SR leukemia
- EXPERIMENTAL_DETAILS: NCI tumour cell line growth inhibition, 48 h
Please state the figure in µM; there is no need to write the unit.

# count of solved cases: 4
INSERT INTO assay_data (compound, unit_text, experimental_value) VALUES
  ('Cc1cc2nc3c4ccc(Br)cc4n(CCN(C)C)c3nc2cc1C', 'µM', 10),
  ('C=C(C)[C@@H]1CC[C@]2(C(=O)NC(C)=O)CC[C@]3(C)[C@H](CC[C@@H]4[C@@]5(C)CCCNC(C)(C)[C@@H]5CC[C@]43C)[C@@H]12', 'µM', 3.07),
  ('CC1(C)CC(=O)C2=C(C1)OC1(CC2c2ccc(Cl)cc2)CC(c2ccc(Cl)cc2)C2=C(CC(C)(C)CC2=O)O1 (centres undefined)', 'µM', 87.2),
  ('O=C(Nc1nc2ccccc2s1)c1cc(-c2ccc(F)cc2)n2nc(-c3ccccc3)cc2n1', 'µM', 12.8);

INPUT: Record lookup: for SR leukemia, what TGI belongs to CCOC(=O)C1=C(C)N(C2OC(COC(=O)c3ccccc3)C(OC(=O)c3ccccc3)C2OC(=O)c2ccccc2)C(=S)NC1c1ccccc1 (centres undefined) ?
OUTPUT: 73.2

----------
- Test system: LOX IMVI melanoma
- EXPERIMENTAL_DETAILS: NCI tumour cell line growth inhibition, 48 h; in the data active = GI50 below about 0.43 µM; inactive = the rest
Please answer using one outcome listed in 1 (yes) for active, 0 (no) for inactive

Solved cases (3 shown):
INSERT INTO measurements (compound, classification) VALUES
  ('CC1OC(=O)C(C(C)C)NC(=O)C(C(C)C)OC(=O)C(C(C)C)NC(=O)C(C)OC(=O)C(C(C)C)NC(=O)C(C(C)C)OC(=O)C(C(C)C)NC(=O)C(C)OC(=O)C(C(C)C)NC(=O)C(C(C)C)OC(=O)C(C(C)C)NC1=O (centres undefined)', '1 (yes)'),
  ('COc1ccc(-c2n/c(=C\c3c(O)[nH]c4ccccc34)cc3c2=Nc2ccccc2-3)cc1', '0 (no)'),
  ('O=C(Nc1cccc(C(F)(F)F)c1)c1cc2ccccc2cc1O', '0 (no)');

INPUT: What was the test verdict on O=Cc1ccc(N2CCN(c3ccc(C=O)cc3)CC2)cc1 ?
OUTPUT: 0 (no)
